Origin of measurements: patent US5622962A

Form field: inhibition at 0.3 µM (one value per entry).
experimentalSystem: Type I 5α-Reductase from Human Scalp (Homo sapiens, UniProt P18405)
Construct: Scalp punch biopsies from graft recipient sites were obtained from human hair transplant procedures; from tissue; host or cells: human scalp punch biopsies (hair transplant graft recipient sites), homogenate, 100,000×g pellet
Sequence (P18405 whole entry): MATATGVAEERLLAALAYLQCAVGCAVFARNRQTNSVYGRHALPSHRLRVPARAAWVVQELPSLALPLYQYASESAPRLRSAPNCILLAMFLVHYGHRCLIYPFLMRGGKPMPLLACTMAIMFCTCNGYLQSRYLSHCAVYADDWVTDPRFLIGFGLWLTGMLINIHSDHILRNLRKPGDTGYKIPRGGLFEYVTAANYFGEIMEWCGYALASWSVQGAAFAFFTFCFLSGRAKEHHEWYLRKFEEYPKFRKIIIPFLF
methodSummary: Human Type I 5α-reductase assay (conversion of [3H]-testosterone to 5α-reduced metabolites)
Format: biochemical
testSettings: pH 7.5, 0.3 μM; 50 nM [3H]-testosterone, pH 7.5, 25°, 180 min; compared to control reaction mixtures; read-out: percent inhibition of Type I AR
State the value, then name its unit.

smilesrepresentation=CN1C(=O)CC[C@]2(C)c3ccc(-c4cnc5ccccc5n4)cc3CC[C@@H]12 experimentalvalue=71%
smilesrepresentation=CN1C(=O)CC[C@]2(C)c3ccc(Sc4cnccn4)cc3CC[C@@H]12 experimentalvalue=47%
smilesrepresentation=Cc1cccc(Sc2ccc3c(c2)CC[C@H]2NC(=O)CC[C@]32C)c1 experimentalvalue=22%
smilesrepresentation=CN1C(=O)CC[C@]2(C)c3ccc(-c4ccccn4)cc3CC[C@@H]12 experimentalvalue=5%
smilesrepresentation=CN1C(=O)CC[C@]2(C)c3ccc(-c4c(F)c(F)c(F)c(F)c4F)cc3CC[C@@H]12 experimentalvalue=100%

State its inhibition at 0.3 µM for this compound: `COc1cc(-c2ccc3c(c2)CC[C@H]2N(C)C(=O)CC[C@]32C)ccc1O`
41%

State its inhibition at 0.3 µM for this compound: `CN1C(=O)C=C[C@]2(C)c3ccc(-c4cccc5ccccc45)cc3CC[C@@H]12`
46%

State its inhibition at 0.3 µM for this compound: `C[C@]12CCC(=O)N[C@@H]1CCc1cc(CSc3ccccc3)ccc12`
23%

###

experimentalSystem: Type II 5α-Reductase from Human Prostate (Homo sapiens, UniProt P31213)
Construct: The same procedure as above was used for preparations using tissue from prostate surgery; from tissue; host or cells: human prostate tissue from surgery, homogenate, 100,000×g pellet
Sequence (P31213 whole entry): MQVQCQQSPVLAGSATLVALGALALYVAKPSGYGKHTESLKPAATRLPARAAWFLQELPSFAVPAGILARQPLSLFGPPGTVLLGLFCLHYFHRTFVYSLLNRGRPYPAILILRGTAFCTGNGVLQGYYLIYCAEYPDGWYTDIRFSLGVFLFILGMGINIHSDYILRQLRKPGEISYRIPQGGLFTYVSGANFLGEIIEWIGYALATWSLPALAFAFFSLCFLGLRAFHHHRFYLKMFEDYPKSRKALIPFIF
methodSummary: Human Type II 5α-reductase assay (conversion of [3H]-testosterone to 5α-reduced metabolites)
Format: biochemical
testSettings: pH 5.5, 0.3 μM; sodium acetate pH 5.5, 25°, 30 min; compared to control reaction mixtures; read-out: percent inhibition of Type II AR
measurementName: inhibition at 0.3 µM (%)
Respond numerically; units are % and should not be typed.

Would you please look over these solved cases?
smilesrepresentation=CN1C(=O)CC[C@]2(C)c3ccc(/C=C/c4cncc5ccccc45)cc3CC[C@@H]12 unittext=% experimentalvalue=44
smilesrepresentation=CN1C(=O)CC[C@]2(C)c3ccc(-c4ccc5c(c4)OCO5)cc3CC[C@@H]12 unittext=% experimentalvalue=36
smilesrepresentation=CN1C(=O)CC[C@]2(C)c3ccc(CSc4nc5ccccc5s4)cc3CC[C@@H]12 unittext=% experimentalvalue=26
smilesrepresentation=CN1C(=O)CC[C@]2(C)c3ccc(Sc4nc(-c5ccccc5)cc5ccccc45)cc3CC[C@@H]12 unittext=% experimentalvalue=15
smilesrepresentation=C[C@]12CCC(=O)N[C@@H]1CCc1cc(Sc3ccccc3F)ccc12 unittext=% experimentalvalue=19

State its inhibition at 0.3 µM for this molecule: `CN1C(=O)CC[C@]2(C)c3ccc(-c4nc5ccccc5o4)cc3CC[C@@H]12`
36

State its inhibition at 0.3 µM for this molecule: `CN1C(=O)CC[C@]2(C)c3ccc(-c4ccc5ccccc5c4)cc3CC[C@@H]12`
47

State its inhibition at 0.3 µM for this molecule: `CN1C(=O)CC[C@]2(C)c3ccc(Sc4nc5c(-c6ccccc6)cccc5s4)cc3CC[C@@H]12`
81

State its inhibition at 0.3 µM for this molecule: `CN1C(=O)C=C[C@]2(C)c3ccc(-c4cccc([N+](=O)[O-])c4)cc3CC[C@@H]12`
43

State its inhibition at 0.3 µM for this molecule: `CN1C(=O)CC[C@]2(C)c3ccc(-c4nc5c(F)cccc5s4)cc3CC[C@@H]12`
49

State its inhibition at 0.3 µM for this molecule: `CN1C(=O)CC[C@]2(C)c3ccc(Sc4ccccc4)cc3CC[C@@H]12`
24

State its inhibition at 0.3 µM for this molecule: `CN1C(=O)CC[C@]2(C)c3ccc(-c4ccc5ccccc5n4)cc3CC[C@@H]12`
32

State its inhibition at 0.3 µM for this molecule: `CN1C(=O)CC[C@]2(C)c3ccc(C(=O)OCc4ccccc4)cc3CC[C@@H]12`
40
